TEST TARGET: Sodium channel protein type 2 subunit alpha (Homo sapiens) (UniProt Q99250)
Sequence (Q99250 whole entry, looked up): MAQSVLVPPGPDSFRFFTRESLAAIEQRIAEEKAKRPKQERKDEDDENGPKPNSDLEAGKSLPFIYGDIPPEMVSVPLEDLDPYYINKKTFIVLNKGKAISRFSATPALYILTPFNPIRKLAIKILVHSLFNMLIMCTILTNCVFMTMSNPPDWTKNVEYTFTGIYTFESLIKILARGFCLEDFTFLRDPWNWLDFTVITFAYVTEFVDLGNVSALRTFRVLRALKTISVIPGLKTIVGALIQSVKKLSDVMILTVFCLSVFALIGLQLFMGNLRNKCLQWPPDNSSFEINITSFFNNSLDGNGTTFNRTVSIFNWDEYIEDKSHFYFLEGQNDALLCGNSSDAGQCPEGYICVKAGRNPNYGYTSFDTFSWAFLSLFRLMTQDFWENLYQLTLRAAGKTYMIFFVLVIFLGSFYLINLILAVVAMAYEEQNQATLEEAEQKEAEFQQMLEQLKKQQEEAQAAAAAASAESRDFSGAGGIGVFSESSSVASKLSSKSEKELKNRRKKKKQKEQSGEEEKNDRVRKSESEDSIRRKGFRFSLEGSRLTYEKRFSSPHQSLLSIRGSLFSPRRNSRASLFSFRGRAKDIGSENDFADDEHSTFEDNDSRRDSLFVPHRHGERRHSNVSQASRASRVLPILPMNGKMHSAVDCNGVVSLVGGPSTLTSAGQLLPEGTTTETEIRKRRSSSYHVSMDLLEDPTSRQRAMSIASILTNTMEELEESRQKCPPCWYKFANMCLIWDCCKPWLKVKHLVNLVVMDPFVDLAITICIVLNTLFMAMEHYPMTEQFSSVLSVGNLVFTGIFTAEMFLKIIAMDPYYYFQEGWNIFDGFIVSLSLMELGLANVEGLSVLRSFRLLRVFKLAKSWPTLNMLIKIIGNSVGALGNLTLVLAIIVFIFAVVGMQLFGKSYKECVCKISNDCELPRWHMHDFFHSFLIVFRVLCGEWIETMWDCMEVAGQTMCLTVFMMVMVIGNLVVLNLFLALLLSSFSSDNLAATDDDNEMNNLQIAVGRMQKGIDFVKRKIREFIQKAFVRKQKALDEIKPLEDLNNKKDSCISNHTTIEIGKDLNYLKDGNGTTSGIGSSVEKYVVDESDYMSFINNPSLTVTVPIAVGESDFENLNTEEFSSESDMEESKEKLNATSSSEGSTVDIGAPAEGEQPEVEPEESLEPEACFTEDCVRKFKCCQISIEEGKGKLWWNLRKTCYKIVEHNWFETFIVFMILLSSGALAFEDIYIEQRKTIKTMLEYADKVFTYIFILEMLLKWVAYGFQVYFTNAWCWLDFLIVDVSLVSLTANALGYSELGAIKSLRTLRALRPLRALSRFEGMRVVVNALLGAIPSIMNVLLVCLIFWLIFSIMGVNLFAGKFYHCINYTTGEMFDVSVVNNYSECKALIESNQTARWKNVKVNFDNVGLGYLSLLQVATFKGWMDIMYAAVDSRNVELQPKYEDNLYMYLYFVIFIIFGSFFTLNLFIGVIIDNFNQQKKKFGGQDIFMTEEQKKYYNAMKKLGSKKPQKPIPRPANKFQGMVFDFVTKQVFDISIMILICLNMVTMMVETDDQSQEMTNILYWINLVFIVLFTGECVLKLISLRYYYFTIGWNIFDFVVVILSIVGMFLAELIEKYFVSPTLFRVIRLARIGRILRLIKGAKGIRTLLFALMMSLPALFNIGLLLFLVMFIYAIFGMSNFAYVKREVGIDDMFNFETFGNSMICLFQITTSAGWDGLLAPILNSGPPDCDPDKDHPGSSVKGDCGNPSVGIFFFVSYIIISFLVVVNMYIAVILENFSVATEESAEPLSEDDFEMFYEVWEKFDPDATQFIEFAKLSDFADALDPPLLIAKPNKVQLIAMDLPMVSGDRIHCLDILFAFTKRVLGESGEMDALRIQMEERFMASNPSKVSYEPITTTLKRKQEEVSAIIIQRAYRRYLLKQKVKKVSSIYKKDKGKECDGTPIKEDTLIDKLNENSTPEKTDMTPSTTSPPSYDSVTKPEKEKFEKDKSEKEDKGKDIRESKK
ASSAY: Inhibition of human Nav1.2 channel at 3 uM
The molecules listed here are annotated with their inhibition.
Answer format: numeric, % implied, no suffix.

STRUCTURE	MEASURE UNIT	inhibition
Cc1cccc(NC(=O)c2ccc(-c3ccc(C#N)cc3)o2)c1	%	32
CN1CCCc2cc(NC(=O)c3ccc(-c4ccc(Cl)cc4)o3)ccc21	%	38
Cc1cccc(NC(=O)c2ccc(-c3ccc(Cl)cc3)o2)c1	%	54

Pending molecule:
Fill in the blank: the reported inhibition of COc1cc(NC(=O)c2ccc(-c3ccc(Cl)cc3)o2)cc(OC)c1 is ____. 41

Each recorded value in this set is attributed to ChEMBL document CHEMBL1140726.
